B1: EFHC1 (parent)
chain: NIYYYLEDDSMSVIEPVVENSGIL

- Variants of: B1
- MEASUREMENT_DESCRIPTION: protein stability index of a GFP-peptide fusion (GPS, HEK-293T) (PSI 1-6); higher = more stable;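 note: lentivirally expressed fusions sorted by FACS into six bins by GFP to DsRed ratio, PSI derived from sequencing read proportions per bin multiplied by bin number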
- DETAILS: c terminus: a fixed tail appended
REPORTED_ENDPOINT: protein stability index
Answer with the value's number alone.

MUTATION_CODE: Y3T
protein stability index: 3.64
//
MUTATION_CODE: M11D
protein stability index: 3.39
//
MUTATION_CODE: V17A
protein stability index: 2.1
//
MUTATION_CODE: E7I
protein stability index: 2.12
//
MUTATION_CODE: M11V
protein stability index: 2.2

Please find the next variant below.
Incoming: If you can, please state the reported protein stability index value of I2L .
Outgoing: 2.05
